Reference for the values: ChEMBL document CHEMBL3124755

The reader will find reported pIC50 values listed item by item below.
- assay.comment: Cytotoxicity against mouse DLA cells after 48 hrs by MTT assay
- Type: functional, cell-based
pIC50: −log10 of the molar value.

{"columns": ["query.smiles", "pIC50"],
 "data": [
  ["Cc1ccc(OCC(=O)NNC(=O)c2cc3ccccc3oc2=O)c(C(=O)c2ccccc2Cl)c1", 4.27],
  ["Cc1ccc(C(=O)c2cc(C)ccc2OCC(=O)NNC(=O)c2cc3ccccc3oc2=O)cc1", 4.07],
  ["Cc1ccc(OCC(=O)NNC(=O)c2cc3ccccc3oc2=O)c(C(=O)c2ccccc2)c1", 4.06],
  ["Cc1ccc(OCC(=O)NNC(=O)c2cc3ccccc3oc2=O)c(C(=O)c2ccccc2Br)c1", 5.00],
  ["Cc1ccc(OCC(=O)NNC(=O)c2cc3ccccc3oc2=O)c(C(=O)c2ccc(Br)cc2)c1", 4.04],
  ["Cc1ccc(OCC(=O)NNC(=O)c2cc3ccccc3oc2=O)c(C(=O)c2ccc(F)cc2)c1", 4.36],
  ["O=c1[nH]cc(F)c(=O)[nH]1", 4.80],
  ["COc1ccc(C(=O)c2cc(C)ccc2OCC(=O)NNC(=O)c2cc3ccccc3oc2=O)cc1", 4.38],
  ["Cc1ccc(OCC(=O)NNC(=O)c2cc3ccccc3oc2=O)c(C(=O)c2cccc(Cl)c2)c1", 4.18],
  ["Cc1ccc(OCC(=O)NNC(=O)c2cc3ccccc3oc2=O)c(C(=O)c2cccc(Br)c2)c1", 4.16],
  ["Cc1ccc(OCC(=O)NNC(=O)c2cc3ccccc3oc2=O)c(C(=O)c2ccc(Cl)cc2)c1", 4.23]
]}
